- Test system: ivyleaf morningglory (Ipomoea hederacea, IPOHE)
- protocol-text: Post-emerge test, greenhouse herbicide activity screening
- Format: in vivo
- assay-setup: post-emerge, 63 g ai/ha, 14 days after application, rating scale 0-100
readout-kind: phytotoxicity rating IPOHE

- molecule: "COc1c(Cl)cc(F)c(-n2c(=O)cc(C(F)(F)F)n(C)c2=O)c1NC(=O)c1ccc(Cl)cc1Cl"
  recorded-number: 95
- molecule: "COc1c(Cl)cc(F)c(-n2c(=O)cc(C(F)(F)F)n(C)c2=O)c1N(C(=O)c1ccc(C(F)(F)F)cc1)C(=O)c1ccc(C(F)(F)F)cc1"
  recorded-number: 75
- molecule: "COc1c(Cl)cc(F)c(-n2c(=O)cc(C(F)(F)F)n(C)c2=O)c1NC(=O)OCc1ccc(C)c(C)c1"
  recorded-number: 100
- molecule: "COc1c(Cl)cc(F)c(-n2c(=O)cc(C(F)(F)F)n(C)c2=O)c1NC(=O)C=Cc1ccccc1Cl"
  recorded-number: 60
- molecule: "Cc1ccc(OC(=O)Nc2c(C)c(Cl)cc(F)c2-n2c(=O)cc(C(F)(F)F)n(C)c2=O)cc1C"
  recorded-number: 100
- molecule: "COc1c(Cl)cc(F)c(-n2c(=O)cc(C(F)(F)F)n(C)c2=O)c1NC(=O)OC(c1ccccc1)C1CC1 (stereo not drawn)"
  recorded-number: 100

* * *

- Tested on: large crabgrass (Digitaria sanguinalis, DIGSA)
- protocol-text: Pre-emerge test, greenhouse herbicide activity screening
- Type: in vivo
- assay-setup: 250 g ai/ha; pre-emerge; rated 14 days after application; 0 = no damage, 100 = complete death
readout-kind: Pre-emerge Herbicidal Activity DIGSA (phytotoxicity rating, scale 0-100)

- smiles-entry: "Cn1c(C(F)(F)F)cc(=O)n(-c2c(F)cc(Cl)c(OCC#N)c2N)c1=O"
  assayed-target: "large crabgrass (Digitaria sanguinalis, DIGSA)"
  result: 90
- smiles-entry: "CCc1ccc(C(=O)Nc2c(OCC#N)c(Cl)cc(F)c2-n2c(=O)cc(C(F)(F)F)n(C)c2=O)cc1"
  assayed-target: "large crabgrass (Digitaria sanguinalis, DIGSA)"
  result: 90
- smiles-entry: "COc1c(Cl)cc(F)c(-n2c(=O)cc(C(F)(F)F)n(N)c2=O)c1N"
  assayed-target: "large crabgrass (Digitaria sanguinalis, DIGSA)"
  result: 100
- smiles-entry: "COc1c(Cl)cc(F)c(-n2c(=O)cc(C(F)(F)F)n(C)c2=O)c1N(C(=O)C1CC1)C(=O)C1CC1"
  assayed-target: "large crabgrass (Digitaria sanguinalis, DIGSA)"
  result: 0
- smiles-entry: "COc1c(Cl)cc(F)c(-n2c(=O)cc(C(F)(F)F)n(C)c2=O)c1[N+](=O)[O-]"
  assayed-target: "large crabgrass (Digitaria sanguinalis, DIGSA)"
  result: 70

* * *

- Test system: field corn (Zea mays L., var. Dekalb 535, CORN)
- protocol-text: Pre-emerge test, crop safety
- Format: in vivo
- assay-setup: pre-emerge, 250 g ai/ha, 14 days after application, rating scale 0-100
Each entry below carries its reported phytotoxicity rating CORN.

- molecule: "COc1c(Cl)cc(F)c(-n2c(=O)cc(C(F)(F)F)n(C)c2=O)c1NN=C(C)C"
  phytotoxicity rating CORN: 100
- molecule: "COc1c(Cl)cc(F)c(-n2c(=O)cc(C(F)(F)F)n(C)c2=O)c1NN=Cc1ccc2ccccc2c1"
  phytotoxicity rating CORN: 95
- molecule: "COc1c(Cl)cc(F)c(-n2c(=O)cc(C(F)(F)F)n(C)c2=O)c1NNC(=O)c1ccccc1"
  phytotoxicity rating CORN: 100
- molecule: "COc1cc(Cl)cc(Cl)c1-n1c(=O)cc(C(F)(F)F)n(C)c1=O"
  phytotoxicity rating CORN: 0
- molecule: "CCOC(=O)C(Cl)Cc1cc(Cl)cc(F)c1-n1c(=O)cc(C(F)(F)F)n(C)c1=O (stereo not drawn)"
  phytotoxicity rating CORN: 0
- molecule: "COc1c(Cl)cc(F)c(-n2c(=O)cc(C(F)(F)F)n(C)c2=O)c1NNC(=O)c1ccc2ccccc2c1"
  phytotoxicity rating CORN: 99
